- target system: Human immunodeficiency virus type 1 protease (Human immunodeficiency virus 1, UniProt Q72874)
For each record, write down the corresponding IC50.
Numbers only, in nM.

CC(C)(C)NC(=O)[C@@H]1C[C@@H]2CCCC[C@@H]2CN1C[C@@H](O)[C@H](Cc1ccccc1)NC(=O)O[C@H]1CCCOC1 | 392
CC(C)(C)NC(=O)[C@@H]1C[C@@H]2CCCC[C@@H]2CN1C[C@@H](O)[C@H](Cc1ccccc1)NC(=O)O[C@H]1C=CCOC1 | 314
O=C(N[C@@H](Cc1ccccc1)[C@@H](O)C[C@@H](Cc1ccccc1)C(=O)N[C@H]1c2ccccc2C[C@H]1O)OC1CCOCC1 | 1.22

I need IC50 for every entry listed below, if you could help.
1. O=C(N[C@@H](Cc1ccccc1)[C@@H](O)C[C@@H](Cc1ccccc1)C(=O)N[C@H]1c2ccccc2C[C@H]1O)O[C@@H]1CCOC1
2. O=C(N[C@@H](Cc1ccccc1)[C@@H](O)C[C@@H](Cc1ccccc1)C(=O)N[C@H]1c2ccccc2C[C@H]1O)OC1CCCC1
3. CC(C)(C)NC(=O)[C@@H]1C[C@@H]2CCCC[C@@H]2CN1C[C@@H](O)[C@H](Cc1ccccc1)NC(=O)O[C@@H]1CCCOC1
4. CC(C)(C)NC(=O)[C@@H]1C[C@@H]2CCCC[C@@H]2CN1C[C@@H](O)[C@H](Cc1ccccc1)NC(=O)O[C@@H]1C=CCOC1

Result:
1: 0.03; 2: 0.33; 3: 308; 4: 48.9

* * *

// endpoint IC50 / system UniProt:Q72874

I need IC50 for every entry listed below, if you could help.
1. O=C(N[C@@H](Cc1ccccc1)[C@@H](O)C[C@@H](Cc1ccccc1)C(=O)N[C@H]1c2ccccc2C[C@H]1O)O[C@@H]1CCCOC1
2. CC(C)(C)NC(=O)[C@@H]1C[C@@H]2CCCC[C@@H]2CN1C[C@@H](O)[C@H](Cc1ccccc1)NC(=O)OC(C)(C)C
3. O=C(N[C@@H](Cc1ccccc1)[C@@H](O)C[C@@H](Cc1ccccc1)C(=O)N[C@H]1c2ccccc2C[C@H]1O)O[C@H]1CCOC1
4. O=C(N[C@@H](Cc1ccccc1)[C@@H](O)C[C@@H](Cc1ccccc1)C(=O)N[C@H]1c2ccccc2C[C@H]1O)O[C@H]1CCCOC1

Result:
1: < 0.03 nM; 2: > 3000 nM; 3: < 0.03 nM; 4: < 0.03 nM
